src = PubChem BioAssay

target: Torsin-1A-interacting protein 2 (Homo sapiens); assay: LULL1 binders on small-molecule microarray, primary screen, cell lysate, human LULL1 lysate, 635/667 nm fluorescence (AID 1092); settings: hLULL1 lysate binding, 635 nm fluorescence, higher = more signal;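 also: probe is lysate of COS7 cells overexpressing human LULL1; score merges per-feature 667 nm fluorescence with signal-to-noise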
endpoint-name: composite z-score
Give the figure by itself; no unit, no explanation.

Report composite z-score, nothing else, for this compound: CO[C@H]1COC(=O)CC=C[C@H](C)[C@@H](OC)COC(=O)[C@H](Cc2ccccc2)NC(=O)CC=C[C@@H]1C
-1.22

Report composite z-score, nothing else, for this compound: O=C1OCCC/C=C\[C@H]2OC34C=CCN(CCN5CCOCC5)C(=O)[C@H]3N(CCCCCO)C(=O)[C@@H]4C12 (some centres undefined)
-0.701

Report composite z-score, nothing else, for this compound: COc1ccc([Si](C)(C)[C@@H]2[C@@H](CCO)O[C@]3(C(=O)N(Cc4ccc(NC(=O)[C@H](C)O)cc4)c4ccccc43)[C@H]2C)cc1
2.42

Report composite z-score, nothing else, for this compound: COC(=O)C[C@H]1O[C@]2(C(=O)N(C)c3ccccc32)[C@@H](C)[C@@H]1[Si](C)(C)c1ccc(OC)cc1
0.49

====

Would you mind telling me the reported composite z-score of each entry?
test: small-molecule microarray binders of probe aCHRDL2, primary screen, biochemical, biotinylated probe, 635/667 nm fluorescence (AID 1100); settings: higher = more signal
Give the figure by itself; no unit, no explanation.

Report composite z-score, nothing else, for this molecule: CO[C@H]1COC(=O)[C@H](Cc2ccccc2)NC(=O)CC=C[C@@H](C)[C@H](OC)COC(=O)CC=C[C@@H]1C
-0.473

Report composite z-score, nothing else, for this molecule: C=CCc1cccc([C@H]2N[C@H](C(=O)O)CC[C@@H]2C)c1
-0.832

Report composite z-score, nothing else, for this molecule: C=C(COC)/C(=C/C[C@@H](OC(=O)c1ccncc1)c1ccc(OCCO)cc1)c1cc(C(=O)OC)ccc1OC
0.421

Report composite z-score, nothing else, for this molecule: [N-]=[N+]=NCc1ccccc1[C@H]1OC(c2ccc(OCCCO)cc2)=N[C@@]1(Cc1ccccc1N=[N+]=[N-])C(=O)NCc1ccccc1
1.1

====

target: NADPH oxidase 4 (Homo sapiens) (UniProt Q9NPH5); assay: NOX4-dependent H2O2 signal modulators, primary screen, NOX inhibitor project, cell-based, HEK293-NOX4, tetracycline-induced, Amplex Red fluorescence (AID 1160); conditions: 45 min, higher = more signal, called active from +8 up or from −8 down
Sequence (Q9NPH5 whole entry, looked up): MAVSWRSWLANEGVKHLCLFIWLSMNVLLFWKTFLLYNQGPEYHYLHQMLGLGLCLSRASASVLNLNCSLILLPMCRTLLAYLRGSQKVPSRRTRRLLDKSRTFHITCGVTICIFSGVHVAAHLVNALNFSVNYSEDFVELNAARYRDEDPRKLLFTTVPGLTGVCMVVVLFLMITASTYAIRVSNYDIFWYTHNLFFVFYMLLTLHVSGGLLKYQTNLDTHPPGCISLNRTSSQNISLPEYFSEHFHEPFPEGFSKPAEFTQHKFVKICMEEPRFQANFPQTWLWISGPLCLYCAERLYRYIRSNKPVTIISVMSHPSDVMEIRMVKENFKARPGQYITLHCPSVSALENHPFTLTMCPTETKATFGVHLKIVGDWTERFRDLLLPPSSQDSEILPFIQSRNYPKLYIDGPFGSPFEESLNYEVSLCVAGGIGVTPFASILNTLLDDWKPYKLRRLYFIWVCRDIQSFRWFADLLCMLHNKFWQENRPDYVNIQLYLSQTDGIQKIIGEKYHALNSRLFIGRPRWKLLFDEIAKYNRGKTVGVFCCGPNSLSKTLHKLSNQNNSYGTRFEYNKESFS
// label = rule met if z-score is not less than 0.5, otherwise rule not met

Is the recorded value of z-score equal to or greater than 0.5 for this compound? COc1ccc(-c2cc3c(c(-c4ccccc4)n2)[Si](C(C)C)(C(C)C)O[C@H]3c2ccccc2)cn1
rule not met

Is the recorded value of z-score equal to or greater than 0.5 for this compound? CC(=O)NCCCC[C@@H]1NC(=O)[C@@H]2C[C@H](C(=O)NCCCCCCN(C)C)[C@H](c3ccc(O)cc3)N2C1=O
rule not met

Is the recorded value of z-score equal to or greater than 0.5 for this compound? COCCOC(=O)N1C(=O)[C@@]2(c3cc(C#CC4=CCCCC4)ccc31)[C@H](c1ccc(O)cc1)N1[C@H](c3ccccc3)[C@H](c3ccccc3)OC(=O)[C@H]1[C@@H]2C(=O)N1CCCCCCC1
rule not met

Is the recorded value of z-score equal to or greater than 0.5 for this compound? C=CC[C@]1(C(=O)O)N=C(c2ccc(OCCCO)cc2)O[C@H]1c1ccccc1N=[N+]=[N-]
rule met

Is the recorded value of z-score equal to or greater than 0.5 for this compound? C=C(CCCC)/C(=C/C[C@H](OC(=O)c1ccncc1)c1cccc(OCCO)c1)c1cc(C(=O)OC)ccc1OC
rule not met

Is the recorded value of z-score equal to or greater than 0.5 for this compound? CCOC(=O)C[C@H]1[C@H](OC(=O)Cc2ccc3c(c2)OCO3)[C@@H](NC(=O)CC(C)C)c2cc(OCCCO)ccc2N1C(=O)c1ccccc1
rule met

Is the recorded value of z-score equal to or greater than 0.5 for this compound? O=C1O[C@H](c2ccccc2)[C@H](c2ccccc2)N2[C@H]1[C@@H](C(=O)Nc1nc3ccccc3s1)[C@]1(C(=O)Nc3ccc(C#CC4(O)CCCCCC4)cc31)[C@H]2c1ccc(O)cc1
rule not met

====

target: Homeobox protein Hox-A13 (Mus musculus); test: inhibitors of HoxA13-DNA binding, primary screen, biochemical, fluorescence polarization, labeled oligonucleotide (AID 1185); conditions: 15 min, called active from +8 up or from −8 down
Active and inactive are the calls of the source.
Permitted responses: True = active, False = inactive

Returns: the outcome recorded for CCCNC(=O)[C@@H]1c2ccccc2C(=O)N(C2CCCCC2)[C@H]1c1ccc(CO)cc1 in this assay.
False

Returns: the outcome recorded for CCOC(=O)[C@H]1C/C=C/C[C@H](C(=O)OCC)C(=O)O[C@H]2[C@@H](OC)O[C@H](CO)[C@@H](OC(=O)Nc3ccc(Br)cc3)[C@@H]2OC1=O in this assay.
False

Returns: the outcome recorded for CC(=O)NCCCC[C@@H]1NC(=O)[C@H]2C[C@@H](C(=O)NCCCCCCN(C)C)[C@@H](c3ccc(O)cc3)N2C1=O in this assay.
False

Returns: the outcome recorded for C=CCC1=C[C@H]2[C@H]([C@@H]3C=C[C@]2(CC=C)C(=O)[C@]32CO2)[C@@]2(CO2)C1=O in this assay.
False

Returns: the outcome recorded for COc1cccc([C@@H]2[C@@H](C)CC[C@H]3C(=O)N4[C@H](c5cccc(OC)c5)[C@@H](C)CC[C@H]4C(=O)N23)c1 in this assay.
False

Returns: the outcome recorded for COCCOC(=O)N1C(=O)[C@@]2(c3cc(C#CCNC(N)=O)ccc31)[C@H](c1ccc(OCCO)cc1)N1[C@H](c3ccccc3)[C@H](c3ccccc3)OC(=O)[C@H]1[C@@H]2C(=O)N1CCCCCCC1 in this assay.
True

Returns: the outcome recorded for COc1ccc(CCNC(=O)[C@@]2(c3ccc([N+](=O)[O-])cc3)CC(=O)N(C(C)C)[C@@H]2c2ccc(CO)cc2)cc1 in this assay.
False

Returns: the outcome recorded for CN(C)CCCC[C@@H]1NC(=O)[C@@H]2C[C@H](C(=O)NCCCCCNC(=O)CS)[C@H](c3ccc(O)cc3)N2C1=O in this assay.
False

Returns: the outcome recorded for C=CC(=O)O[C@@H](Cc1ccccc1)[C@H]1C2C=CCCC=C2CN1Cc1cccc(Cl)c1 (some centres undefined) in this assay.
False

Returns: the outcome recorded for C[C@H]1COC(=O)[C@H](Cc2ccccc2)NC(=O)[C@@H](C)COC(=O)[C@H](Cc2ccccc2)NC1=O in this assay.
False

Returns: the outcome recorded for C=C(COC)/C(=C/C[C@H](OC(C)=O)c1ccc(OCCO)cc1)c1cnc2ccccc2c1 in this assay.
False

Returns: the outcome recorded for C=CCC(OC(C)=O)[C@@H]1[C@@H](N(Cc2cccc3ccccc23)C(=O)c2ccc(C)cc2)c2cc(OCCCO)ccc2N1C(=O)c1ccc(-c2ccccc2)cc1 (some centres undefined) in this assay.
False

Returns: the outcome recorded for CO[C@H]1COC(=O)CC=C[C@H](C)[C@@H](OC)COC(=O)[C@H](Cc2ccccc2)NC(=O)CC=C[C@@H]1C in this assay.
False

Returns: the outcome recorded for C[C@@H]1NC(=O)[C@H](Cc2ccccc2)NC(=O)[C@@]23C(=O)N[C@@H](Cc4ccccc4)C2[C@H](C)[C@@]2(C)O[C@H]2C3/C=C/C/C=C\CNC1=O (some centres undefined) in this assay.
False

====

experiment: HepG2 cell viability effects, profiling panel, calcein-AM fluorescence, 48 h, basal (AID 1164); conditions: higher = more signal; also: test concentration not given here
// label = criterion met if z-score is not less than -0.6, otherwise criterion not met

Is the recorded value of z-score equal to or greater than -0.6 for this molecule? C=CCc1cccc([C@@H]2[C@@H](C)CC[C@H]3C(=O)N4[C@H](c5cccc(CC=C)c5)[C@@H](C)CC[C@H]4C(=O)N23)c1
criterion not met

Is the recorded value of z-score equal to or greater than -0.6 for this molecule? CCOC(=O)C[C@H]1[C@H](OC(=O)c2cc3ccccc3oc2=O)[C@@H](NC(=O)c2ccc3ccccc3c2)c2cc(OCCCO)ccc2N1C(=O)c1ccc2ccccc2n1
criterion met

Is the recorded value of z-score equal to or greater than -0.6 for this molecule? C=CC[C@]1(C(=O)O)N=C(c2ccc(OCCCO)cc2)O[C@H]1c1ccccc1N=[N+]=[N-]
criterion met

Is the recorded value of z-score equal to or greater than -0.6 for this molecule? COc1ccc([Si](C)(C)[C@@H]2[C@@H](CCO)O[C@]3(C(=O)N(Cc4ccccc4)c4ccccc43)[C@H]2C)cc1
criterion met

Is the recorded value of z-score equal to or greater than -0.6 for this molecule? COCCOC(=O)N1C(=O)[C@@]2(c3cc(C#CC4(O)CCCCCC4)ccc31)[C@H](C(=O)N1CCCCCCC1)[C@H]1C(=O)O[C@H](c3ccccc3)[C@H](c3ccccc3)N1[C@@H]2c1ccc(O)cc1
criterion met

Is the recorded value of z-score equal to or greater than -0.6 for this molecule? Cc1ccc(S(=O)(=O)c2cc3oc2CC[C@@H](CO)NC(=O)N(C)Cc2cn(nn2)C[C@H](Cc2ccccc2)NC3=O)cc1
criterion met

Is the recorded value of z-score equal to or greater than -0.6 for this molecule? Cc1ccc(S[C@]2(C(=O)O)CC(=O)N(Cc3ccccc3)[C@@H]2c2ccc(CO)cc2)cc1
criterion met

Is the recorded value of z-score equal to or greater than -0.6 for this molecule? C=C(/C(=C/C[C@@H](OC(=O)c1ccncc1)c1ccc(CO)o1)c1cnc2ccccc2c1)C(C)C
criterion not met

Is the recorded value of z-score equal to or greater than -0.6 for this molecule? CO[C@H]1O[C@H](CO)[C@@H](OC(=O)Nc2ccc(Oc3ccccc3)cc2)[C@H](OC(=O)Nc2ccccc2-c2ccccc2)[C@H]1OC(=O)Nc1ccccc1-c1ccccc1
criterion not met

Is the recorded value of z-score equal to or greater than -0.6 for this molecule? COC(=O)C1=CC(c2ccc(CO)cc2)=CC(C2CC2)N(Cc2sc3ccccc3c2Cl)C=C1C(=O)OC (stereo not drawn)
criterion not met

Is the recorded value of z-score equal to or greater than -0.6 for this molecule? NC(=O)NCC#Cc1ccc2c(c1)[C@]1(C(=O)N2)[C@H](c2ccccc2OCCO)N2[C@H](c3ccccc3)[C@H](c3ccccc3)OC(=O)[C@H]2[C@@H]1C(=O)N1CCN(c2ncccn2)CC1
criterion met

Is the recorded value of z-score equal to or greater than -0.6 for this molecule? COc1ccc([Si](C)(C)[C@H]2[C@H](CC(=O)N3Cc4ccccc4C[C@H]3CO)O[C@@]3(C(=O)N(Cc4cccc(N5CCOC5=O)c4)c4ccccc43)[C@@H]2C)cc1
criterion not met

Is the recorded value of z-score equal to or greater than -0.6 for this molecule? CCOC(=O)C1=CC[C@@H](c2ccc(-c3ccc(OCc4ccccc4)cc3)c(OC)c2)N(S(=O)(=O)c2ccc(C)cc2)[C@H]1c1ccccc1
criterion met
